Recorded MLM, percentage of the remaining compound after 30 minutes of incubation values for a group of compounds are listed next.
ASSAY REMARKS: Stability test in liver microsomes (mouse)
Format: in vitro ADME
DETAILS: mouse liver microsomes 0.5 mg/mL, 1 μM compound
ENDPOINT LABEL: MLM, percentage of the remaining compound after 30 minutes of incubation (%)

{"COMPOUND": "C[C@H]1CN(C2COC2)CCN1c1ccc(Nc2cc(-c3ccnc(N4CCn5c(cc6c5CC(C)(C)C6)C4=O)c3CO)cn(C)c2=O)nc1 [GDC-0853, fenebrutinib, reference compound]", "EXPERIMENTAL RESULT": 76.3}
{"COMPOUND": "C[C@H]1CNC[C@H](C)N1c1ccc(Nc2cc(-c3ccnc(-n4ccn5c6c(cc5c4=O)CC(C)(C)C6)c3CO)cn(C)c2=O)nc1 [Compound 5]", "EXPERIMENTAL RESULT": 67.5}
{"COMPOUND": "C[C@H]1CN(C2COC2)C[C@H](C)N1c1ccc(Nc2cc(-c3ccnc(-n4ncn5c6c(cc5c4=O)CC(C)(C)C6)c3CO)cn(C)c2=O)nc1 [Compound 4]", "EXPERIMENTAL RESULT": 90.9}
{"COMPOUND": "C[C@H]1CN(C2COC2)C[C@H](C)N1c1ccc(Nc2cc(-c3ccnc(-n4ccn5c6c(cc5c4=O)CC(C)(C)C6)c3CO)cn(C)c2=O)nc1 [Compound 1]", "EXPERIMENTAL RESULT": 91.6}
{"COMPOUND": "C[C@@H]1CN(C2COC2)C[C@H](C)N1c1ccc(Nc2cc(-c3ccnc(-n4ccn5c6c(cc5c4=O)CC(C)(C)C6)c3CO)cn(C)c2=O)nc1 [Compound 2]", "EXPERIMENTAL RESULT": 92.6}

====

ASSAY REMARKS: Stability test in liver microsomes (rat)
Assay type: in vitro ADME
DETAILS: rat liver microsomes 0.5 mg/mL, 1 μM compound
ENDPOINT LABEL: RLM, percentage of the remaining compound after 30 minutes of incubation

{"MOLECULE": "C[C@H]1CNC[C@H](C)N1c1ccc(Nc2cc(-c3ccnc(-n4ccn5c6c(cc5c4=O)CC(C)(C)C6)c3CO)cn(C)c2=O)nc1", "EXPERIMENTAL RESULT": "95.4%"}
{"MOLECULE": "C[C@H]1CN(C2COC2)C[C@H](C)N1c1ccc(Nc2cc(-c3ccnc(-n4ccn5c6c(cc5c4=O)CC(C)(C)C6)c3CO)cn(C)c2=O)nc1", "EXPERIMENTAL RESULT": "87.9%"}
{"MOLECULE": "C[C@H]1CN(C2COC2)CCN1c1ccc(Nc2cc(-c3ccnc(N4CCn5c(cc6c5CC(C)(C)C6)C4=O)c3CO)cn(C)c2=O)nc1 [GDC-0853, fenebrutinib, reference compound]", "EXPERIMENTAL RESULT": "81.0%"}
{"MOLECULE": "C[C@H]1CN(C2COC2)C[C@H](C)N1c1ccc(Nc2cc(-c3ccnc(-n4ncn5c6c(cc5c4=O)CC(C)(C)C6)c3CO)cn(C)c2=O)nc1", "EXPERIMENTAL RESULT": "97.4%"}
{"MOLECULE": "C[C@@H]1CN(C2COC2)C[C@H](C)N1c1ccc(Nc2cc(-c3ccnc(-n4ccn5c6c(cc5c4=O)CC(C)(C)C6)c3CO)cn(C)c2=O)nc1", "EXPERIMENTAL RESULT": "85.7%"}

====

ASSAYED SYSTEM: BTK recombinant protein (Homo sapiens (Human), UniProt Q06187)
Sequence (Q06187 whole entry): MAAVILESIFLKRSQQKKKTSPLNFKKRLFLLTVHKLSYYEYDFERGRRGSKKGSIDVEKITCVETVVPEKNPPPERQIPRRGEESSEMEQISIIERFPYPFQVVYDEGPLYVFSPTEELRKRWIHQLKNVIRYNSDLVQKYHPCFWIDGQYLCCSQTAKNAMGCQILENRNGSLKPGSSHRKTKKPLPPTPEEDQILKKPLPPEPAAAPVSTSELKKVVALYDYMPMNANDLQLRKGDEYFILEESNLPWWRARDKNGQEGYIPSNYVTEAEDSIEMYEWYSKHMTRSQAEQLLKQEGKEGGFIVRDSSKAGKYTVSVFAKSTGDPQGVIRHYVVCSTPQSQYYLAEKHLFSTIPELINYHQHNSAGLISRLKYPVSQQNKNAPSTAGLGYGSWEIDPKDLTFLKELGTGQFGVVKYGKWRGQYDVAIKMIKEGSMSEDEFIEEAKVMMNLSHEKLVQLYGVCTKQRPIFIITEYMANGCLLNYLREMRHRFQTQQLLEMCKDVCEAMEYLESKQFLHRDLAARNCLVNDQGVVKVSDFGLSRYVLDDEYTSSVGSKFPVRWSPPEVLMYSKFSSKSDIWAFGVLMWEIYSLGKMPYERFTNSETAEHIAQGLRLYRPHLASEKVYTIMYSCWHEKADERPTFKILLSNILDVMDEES
ASSAY REMARKS: Determination of biochemical BTK (Z'-LYTE kinase assay)
DETAILS: 32 μM ATP
Description: BTK recombinant protein: Invitrogen, Cat #PV3363; Z′-LYTE® kinase test kit-tyrosine 1 peptide: Invitrogen, Cat #PV3190; Z′-LYTE® biochemical assay employs a fluorescence resonance energy transfer (FRET)-based, coupled-enzyme format and is based on the differential sensitivity of phosphorylated and non-phosphorylated peptides to proteolytic cleavage. Both ends of the short peptide substrate are labeled with two fluorescent groups to form a FRET paired combination. […]

{"SMILES REPRESENTATION": "C[C@H]1CN(C)C[C@H](C)N1c1ccc(Nc2cc(-c3ccnc(-n4ccn5c6c(cc5c4=O)CC(C)(C)C6)c3CO)cn(C)c2=O)nc1", "IC50, nM": 7}
{"SMILES REPRESENTATION": "C[C@H]1CN(C2COC2)C[C@H](C)N1c1ccc(Nc2cc(-c3ccnc(-n4ccn5c6c(cc5c4=O)CC(C)(C)C6)c3CO)cn(C)c2=O)nc1", "IC50, nM": 10}
{"SMILES REPRESENTATION": "C[C@H]1CN(C2COC2)C[C@H](C)N1c1ccc(Nc2cc(-c3ccnc(-n4ccn5c6c(c(F)c5c4=O)CCCC6)c3CO)cn(C)c2=O)nc1", "IC50, nM": 3}
{"SMILES REPRESENTATION": "C[C@H]1CNC[C@H](C)N1c1ccc(Nc2cc(-c3ccnc(-n4ccn5c6c(cc5c4=O)CC(C)(C)C6)c3CO)cn(C)c2=O)nc1", "IC50, nM": 8}
{"SMILES REPRESENTATION": "C[C@H]1CN(C2COC2)C[C@H](C)N1c1ccc(Nc2cc(-c3ccnc(-n4ncn5c6c(cc5c4=O)CC(C)(C)C6)c3CO)cn(C)c2=O)nc1", "IC50, nM": 5}
{"SMILES REPRESENTATION": "C[C@@H]1CN(C2COC2)C[C@H](C)N1c1ccc(Nc2cc(-c3ccnc(-n4ccn5c6c(cc5c4=O)CC(C)(C)C6)c3CO)cn(C)c2=O)nc1", "IC50, nM": 7}
